The origin of these recorded values is patent US10870660B2.

# Target Or System: human recombinant dopamine D3 receptor (Homo sapiens (Human), UniProt P35462)
# Sequence (P35462 whole entry): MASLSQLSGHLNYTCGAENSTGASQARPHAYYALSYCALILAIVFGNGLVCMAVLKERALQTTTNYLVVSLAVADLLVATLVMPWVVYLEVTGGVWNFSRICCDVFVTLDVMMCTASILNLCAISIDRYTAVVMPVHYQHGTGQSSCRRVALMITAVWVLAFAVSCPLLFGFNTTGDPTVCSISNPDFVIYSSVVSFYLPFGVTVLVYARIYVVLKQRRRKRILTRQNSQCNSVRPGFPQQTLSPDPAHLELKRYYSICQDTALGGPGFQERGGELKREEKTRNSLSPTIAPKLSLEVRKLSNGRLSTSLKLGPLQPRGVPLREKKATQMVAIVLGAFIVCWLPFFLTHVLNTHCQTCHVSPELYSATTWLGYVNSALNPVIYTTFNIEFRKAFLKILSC
# Test Summary: Test of binding inhibition for the human dopamine D3 receptor ([3H]-Metylspiperone SPA binding)
# Condition Notes: [3H]-Metylspiperone 2 nM, Jump-In HEK cell membranes, read-out: hD3_Ki
Endpoint Label: log10(Ki) (log10 of the value in nM)

1) Cc1cc(OCC(=O)N[C@H]2CC[C@](F)(CCN3CCc4ccc(OCC(F)(F)F)nc4CC3)CC2)no1 :: -0.28
2) Cc1nc(CC(=O)N[C@H]2CC[C@](F)(CCN3CCc4nc(OCC(F)(F)F)sc4CC3)CC2)no1 :: -0.60
3) O=C(N[C@H]1CC[C@H](CCN2CCc3sc(Br)nc3C2)CC1)c1cccc2ncccc12 :: 0.41
4) Cc1cnc(CC(=O)N[C@H]2CC[C@](F)(CCN3CCc4nc(OCC(F)(F)F)sc4CC3)CC2)o1 :: -0.82
5) Cn1cc(CC(=O)N[C@H]2CC[C@H](CCN3CCc4sc(OCC(F)F)nc4C3)CC2)cn1 :: 0.18
6) CN1Cc2c(C(=O)N[C@H]3CC[C@H](CCN4CCc5ccc(OCC(C)(F)F)nc5CC4)CC3)cccc2C1=O :: -1.92
7) Cn1cc2c(C(=O)N[C@H]3CC[C@H](CCN4CCc5cnc(CCC(F)(F)F)nc5CC4)CC3)cccc2n1 :: -0.32
8) Cc1ncc(CC(=O)N[C@H]2CC[C@H](CCN3CCc4ccc(OC5CCOC5)nc4CC3)CC2)s1 (stereo partly drawn) :: 0.04
9) Cn1cc2c(C(=O)N[C@H]3CC[C@H](CCN4CCc5sc(N6CC(F)(F)C6)nc5C4)CC3)cccc2n1 :: -0.54
10) O=C(N[C@H]1CC[C@H](CCN2CCc3sc(OCC(F)(F)F)nc3C2)OC1)c1cccc2ncccc12 :: -0.14
11) Cc1ncc(CC(=O)N[C@H]2CC[C@H](CCN3CCc4nc(OCC5CC5)sc4CC3)CC2)s1 :: -0.19
12) Cc1ncc(CC(=O)N[C@H]2CC[C@H](CCN3CCc4sc(OCC(F)(F)F)nc4C(C)C3)CC2)s1 (stereo partly drawn) :: -0.31
13) CCN1Cc2c(C(=O)N[C@H]3CC[C@H](CCN4CCc5ccc(OCC(F)(F)F)nc5CC4)OC3)cccc2C1=O :: -1.07
14) Cc1ncc(CC(=O)N[C@H]2CC[C@H](CCN3CCc4nc(OCC(F)(F)F)sc4CC3)CC2)o1 :: -1.02
15) Cn1cc2c(C(=O)N[C@H]3CC[C@H](CCN4CCc5nc(OCC(F)(F)F)sc5CC4)CC3)cccc2n1 :: -0.70
